# key: entry, value: log10(ED50)
system: amphetamine-induced symptoms (characteristic amphetamine behaviour of cage movement); assay: Antagonism of amphetamine symptoms in rats (rat amphetamine test); type: in vivo; conditions: Rattus norvegicus, sc, 24 h, s.c.; d-amphetamine sulfate 5 mg/kg i.p. 24 hr after treatment; block of cage movement in 50% of rats; read-out: ED50, rat amphetamine test, 24 hr.
// units: mg/kg (pre-log); metric: ED50; scale: log10

Field: example entries. Status: answers known.
CCOC(=O)NCCCCN1CC[C@H]2[C@H](C1)c1cc(F)ccc1N2c1ccc(F)cc1 (relative stereo) | -0.52
CC(=O)NCCN1CC[C@H]2[C@H](C1)c1cc(F)ccc1N2c1ccc(F)cc1 (relative stereo) | 0.00
CC(=O)NCCCCCN1CC[C@H]2[C@H](C1)c1cc(F)ccc1N2c1ccc(F)cc1 (relative stereo) [Example 8, (±) 2-(N--acetyl-1'-amine-n-pent-5'-yl)] | -0.40

NCCCCN1CC[C@H]2[C@H](C1)c1cc(F)ccc1N2c1ccc(F)cc1 (relative stereo) has a reported log10(ED50) of 1.25

CC(=O)NCCCCN1CC[C@H]2[C@H](C1)c1cc(F)ccc1N2c1ccc(F)cc1 (relative stereo) has a reported log10(ED50) of -0.18

----------
Recorded pIC50 values (dopamine receptors (Rattus norvegicus)) are given below.
Keep it numeric: pIC50 is minus log10 of the concentration in mol/L.

CC(=O)NCCCCN1CC[C@H]2[C@H](C1)c1cc(F)ccc1N2c1ccc(F)cc1 (relative stereo) | 7.89
CC(=O)NCCCN1CC[C@H]2[C@H](C1)c1cc(F)ccc1N2c1ccc(F)cc1 (relative stereo) [Example 7, (±) 2-(N--acetyl-1'-amino-n-prop-3-yl)] | 8.00
CC(=O)NCCCCCCCN1CC[C@H]2[C@H](C1)c1cc(F)ccc1N2c1ccc(F)cc1 (relative stereo) [Example 10, (±) 2-(N--acetyl-1'-amino-n-hept-7'-yl)] | 8.05

Moving on to the next compound.
Readout pIC50 for CC(=O)NCCCCCCN1CC[C@H]2[C@H](C1)c1cc(F)ccc1N2c1ccc(F)cc1 (relative stereo) [Example 9, (±) 2-(N--acetyl-1'-amino-n-hex-6'-yl)] , test system dopamine receptors (Rattus norvegicus), was 8.10
